- Assay Remarks: rat microsomal clearance
- Format: in vitro ADME
- Condition Details: predicted hepatic clearance in vitro, rat
Recorded Metric: Rat CLHEP (mL/min/kg)

Smiles Repr	Recorded Metric	Unit Descriptor	Val
COc1ccc(C#Cc2ccc(C(=O)N3CCC[C@@H](O)C3)cc2)cc1	Rat CLHEP	mL/min/kg	52.7

(I) COc1ccc(C#Cc2ccc(C(=O)N3CCC[C@@H](O)C3)c(F)c2)cc1
(II) [2H]C([2H])([2H])Oc1ccc(C#Cc2ccc(C(=O)N3CCC[C@@H](O)C3)c(F)c2)cc1
Query string: Given I and II , report the one with the higher recorded Rat CLHEP. Record your answer as the label of the chosen record.
Result string: I

---

- Assay Remarks: rat IV PK
- Type: in vivo
- Condition Details: plasma
Recorded Metric: Vd (L/kg)

Smiles Repr	Vd [L/kg]
COc1ccc(C#Cc2ccc(C(=O)N3CCC[C@@H](O)C3)cc2)cc1	0.22
COc1ccc(C#Cc2ccc(C(=O)N3CCC[C@@H](O)C3)c(F)c2)cc1	0.21
[2H]C([2H])([2H])Oc1ccc(C#Cc2ccc(C(=O)N3CCC[C@@H](O)C3)cc2)cc1	0.21
[2H]C([2H])([2H])Oc1ccc(C#Cc2ccc(C(=O)N3CCC[C@@H](O)C3)c(F)c2)cc1	0.18

---

- System: UniProt O15303
- Sequence (O15303 25-877): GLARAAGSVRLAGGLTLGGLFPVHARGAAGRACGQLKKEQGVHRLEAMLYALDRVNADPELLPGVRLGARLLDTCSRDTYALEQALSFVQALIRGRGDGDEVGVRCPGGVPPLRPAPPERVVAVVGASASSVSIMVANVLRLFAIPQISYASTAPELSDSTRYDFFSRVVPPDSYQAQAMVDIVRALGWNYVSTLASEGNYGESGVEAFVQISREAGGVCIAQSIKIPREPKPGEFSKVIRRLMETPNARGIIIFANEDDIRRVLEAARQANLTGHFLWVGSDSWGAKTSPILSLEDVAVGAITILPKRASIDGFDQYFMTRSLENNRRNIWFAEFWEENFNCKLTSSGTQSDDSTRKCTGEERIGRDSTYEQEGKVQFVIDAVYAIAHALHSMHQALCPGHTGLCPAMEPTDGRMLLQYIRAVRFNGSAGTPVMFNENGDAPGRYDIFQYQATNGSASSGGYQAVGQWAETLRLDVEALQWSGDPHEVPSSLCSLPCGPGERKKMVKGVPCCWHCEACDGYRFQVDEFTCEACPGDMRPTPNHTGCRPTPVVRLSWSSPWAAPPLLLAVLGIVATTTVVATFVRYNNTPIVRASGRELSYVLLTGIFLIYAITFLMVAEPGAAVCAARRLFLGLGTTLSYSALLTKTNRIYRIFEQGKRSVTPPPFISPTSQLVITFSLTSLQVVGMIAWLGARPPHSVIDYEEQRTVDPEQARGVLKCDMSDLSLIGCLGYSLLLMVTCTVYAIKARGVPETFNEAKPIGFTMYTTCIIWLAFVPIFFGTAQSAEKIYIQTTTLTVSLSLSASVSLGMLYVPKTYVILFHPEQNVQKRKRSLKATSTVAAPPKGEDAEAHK
- Assay Remarks: mGluR selectivity, mGlu6
pIC50: −log10 of the molar value.
Recorded Metric: pIC50

Query string: Name the reported pIC50 value associated with the molecule COc1ccc(C#Cc2ccc(C(=O)N3CCC[C@@H](O)C3)c(F)c2)cc1
Result string: < 4.52

---

- Assay Remarks: rat IV PK
- Type: in vivo
- Condition Details: plasma
Recorded Metric: clearance (mL/min/kg)

Smiles Repr	Val
[2H]C([2H])([2H])Oc1ccc(C#Cc2ccc(C(=O)N3CCC[C@@H](O)C3)c(F)c2)cc1	2.9

(a) COc1ccc(C#Cc2ccc(C(=O)N3CCC[C@@H](O)C3)cc2)cc1
(b) [2H]C([2H])([2H])Oc1ccc(C#Cc2ccc(C(=O)N3CCC[C@@H](O)C3)cc2)cc1
Query string: Pick the one with the larger clearance: a vs b To answer, give the label that identifies your chosen option.
Result string: a
